- STUDY_TARGET: HRAS, mGppNHp-bound (human)
- ASSAY_PROTOCOL: fluorescence polarisation; MBP-tagged effector domain (0.05-100 μM) titrated to 1 μM RAS-mGppNHp; 50 mM Tris/HCl pH 7.5, 100 mM NaCl, 5 mM MgCl2, 3 mM dithiothreitol, 25°C; quadratic ligand binding equation
RECORDED_METRIC: pKd
Units for pKd: none; it is -log10 of a concentration expressed in mol/L.

Any idea what its pKd is? The substance is RAS association (RA) domain of RALGDS, MBP fusion (from UniProt Q12967 777-872) (domain or fragment)
5.60

###

- STUDY_TARGET: KRAS, mGppNHp-bound (human) (UniProt P01116)
- ASSAY_PROTOCOL: fluorescence polarisation; MBP-tagged effector domain (0.05-100 μM) titrated to 1 μM RAS-mGppNHp; 50 mM Tris/HCl pH 7.5, 100 mM NaCl, 5 mM MgCl2, 3 mM dithiothreitol, 25°C; quadratic ligand binding equation
RECORDED_METRIC: Kd (nM)
Reply numerically in nM, unit not repeated.

Hi! What's the reported Kd for RAS association (RA) domain of RALGDS, MBP fusion (from UniProt Q12967 777-872) (domain or fragment) on KRAS, mGppNHp-bound (human) (UniProt P01116)?
1390

###

- STUDY_TARGET: RRAS1, mGppNHp-bound (human) (UniProt P10301)
- Sequence (P10301 whole entry, the tested form may be a part): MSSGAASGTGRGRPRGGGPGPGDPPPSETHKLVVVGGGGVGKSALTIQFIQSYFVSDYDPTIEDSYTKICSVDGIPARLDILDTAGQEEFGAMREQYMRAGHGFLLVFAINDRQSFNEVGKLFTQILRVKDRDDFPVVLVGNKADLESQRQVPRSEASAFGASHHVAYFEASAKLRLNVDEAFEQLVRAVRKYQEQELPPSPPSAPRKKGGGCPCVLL
- ASSAY_PROTOCOL: fluorescence polarisation; MBP-tagged effector domain (0.05-100 μM) titrated to 1 μM RAS-mGppNHp; 50 mM Tris/HCl pH 7.5, 100 mM NaCl, 5 mM MgCl2, 3 mM dithiothreitol, 25°C; quadratic ligand binding equation
RECORDED_METRIC: Kd (µM)
Reply numerically in µM, unit not repeated.

Any idea what its Kd is? The substance is RAS association (RA) domain of RALGDS, MBP fusion (from UniProt Q12967 777-872) (domain or fragment)
9.71
